Molecular target: Neuropeptide Y receptor type 2 (Homo sapiens, UniProt P49146)
Sequence (P49146 whole entry): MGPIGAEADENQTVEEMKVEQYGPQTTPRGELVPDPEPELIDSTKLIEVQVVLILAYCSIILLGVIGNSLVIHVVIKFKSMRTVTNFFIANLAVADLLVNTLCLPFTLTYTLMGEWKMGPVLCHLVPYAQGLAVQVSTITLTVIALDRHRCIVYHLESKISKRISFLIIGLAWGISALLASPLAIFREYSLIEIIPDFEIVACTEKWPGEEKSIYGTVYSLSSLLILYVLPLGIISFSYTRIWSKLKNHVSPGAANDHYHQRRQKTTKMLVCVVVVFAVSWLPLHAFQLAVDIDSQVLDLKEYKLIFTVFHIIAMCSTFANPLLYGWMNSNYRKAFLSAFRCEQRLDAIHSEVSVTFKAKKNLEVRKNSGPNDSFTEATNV
pIC50: −log10 of the molar value.
Observed Property: pIC50

QUERY: // lookup pIC50 for `CCc1sc(SCc2cc(N3CCOCC3)cc(NCc3cccc(C)n3)n2)nc1CF`
RESULT: < 5.00
